- Test system: Acinetobacter baumannii ATCC BAA-747
- Assay type: cell-based
- PROTOCOL CONDITIONS: ATCC BAA-747
Ends that are not written are not given here.
PARAMETER: MBC, A. baumannii (ATCC BAA-747) (µM)
// units = µM; emit number, no label

GLLSVLGSLKLIVPHIIPLIAEKL-NH2 [Caerin 1.1-LC PHIIP]    8

Entry GLLSVLGSLKKWVPHVVPLIAKKL-NH2 [Caerin 1.1-LC 11K.12K.12W] , MBC, A. baumannii (ATCC BAA-747) reported as 4

====

- Test system: E. coli NCTC 13846
- Assay type: cell-based, Escherichia coli
Ends that are not written are not given here.
PARAMETER: MIC, E. coli (NCTC 13846) (µM)
// units = µM; emit number, no label

Some solved entries appear below for comparison.
GLLSVLGSLKKWVPHVVPLIAKKL-NH2 [Caerin 1.1-LC 11K.12K.12W]    2
GLLSVLGSLKLIVPHLLPLIAEKL-NH2 [Caerin 1.1-LC PHLLP]    4
GLLSVLGSLKLIVPHIIPLIAEKL-NH2 [Caerin 1.1-LC PHIIP]    4
GLLSVLKSLKKIVPHVVPKIAEKL-NH2 [Caerin 1.1-LC 7.11.19K]    4

Test item GLLSVLGSLKKIVPHVVPLIAKKL-NH2 [Caerin 1.1-LC 11K.22K] ; E. coli NCTC 13846; reported MIC, E. coli (NCTC 13846) was 4

====

A collection of substances and their measured MIC, K^+
- Test system: E. coli (ATCC-BAA 2340)
- Type: cell-based, Escherichia coli
- PROTOCOL CONDITIONS: ATCC-BAA 2340
Ends that are not written are not given here.
// units = µM; emit number, no label

Some solved entries appear below for comparison.
GLLSVLGSLKKWVPHVVPLIAKKL-NH2 [Caerin 1.1-LC 11K.12K.12W]    4
GLLSVLGSLKKIVPHVVPLIAKKL-NH2 [Caerin 1.1-LC 11K.22K]    8
GLLSVLGSLKKIVPHVVPWIAKKL-NH2 [Caerin 1.1-LC 11K.12K.19W]    4
GLLSVLKSLKKIVPHVVPKIAEKL-NH2 [Caerin 1.1-LC 7.11.19K]    2

# input for lookup
Entry GLLSVLGSLKLIVPHVVPLIAEKL-NH2 [Caerin 1.1-LC] , MIC, K^+ reported as 16

====

- Tested on: Acinetobacter baumannii ATCC BAA-747
- Assay type: cell-based
- PROTOCOL CONDITIONS: ATCC BAA-747
Ends that are not written are not given here.
A collection of substances and their measured MIC, A. baumannii (ATCC BAA-747)
// units = µM; emit number, no label

Some solved entries appear below for comparison.
GLLSVLGSLKLIVPHIIPLIAEKL-NH2 [Caerin 1.1-LC PHIIP]    8
GLLSVLGSLKKIVPHVVPLIAKKL-NH2 [Caerin 1.1-LC 11K.22K]    4
GLLSVLGSLKLIVPHLLPLIAEKL-NH2 [Caerin 1.1-LC PHLLP]    4
GLLSVLGSLKKIVPHVVPWIAKKL-NH2 [Caerin 1.1-LC 11K.12K.19W]    4
GLLSVLGSLKKIVPKAVPKIAEKL-NH2 [Caerin 1.1-LC 11K.19K.PKAVP]    128
GLLSVLGSLKLIVPRVVPLIAEKL-NH2 [Caerin 1.1-LC PRVVP]    32

Test item GLLSVLGSLKKIVPHVVPLIAEKL-NH2 [Caerin 1.1-LC 11K] ; Acinetobacter baumannii ATCC BAA-747; reported MIC, A. baumannii (ATCC BAA-747) was 32

Test item GLLSVLGSLKLIVPKVVPLIAEKL-NH2 [Caerin 1.1-LC PKVVP] ; Acinetobacter baumannii ATCC BAA-747; reported MIC, A. baumannii (ATCC BAA-747) was 32

Cited source for all entries: paper PMC12655529
